Assay: Pharmacokinetic study in CD-1 male mice by oral administration and intravenous injection
Format: in vivo
Details: mouse, IV, 1.0 mg/kg, plasma, read-out: Clearance CL
Measured Property: clearance (mL/min/kg)

sample_smiles=CCOc1sc(C(N)=O)c2c1-c1nc(Nc3cc(N4CCN(C)CC4)ccc3OC(F)(F)F)ncc1CC2 measured_property=clearance result_unit=mL/min/kg quantitative_result=47.9

---

AUC(0-t) for assorted molecules
Assay: Pharmacokinetic study in CD-1 male mice by oral administration and intravenous injection
Type: in vivo
Details: mouse, IV, 0.5 mg/kg, plasma, read-out: Area under the plasma concentration-time curve AUC0-24 h
Measured Property: AUC(0-t) (µM·h)

sample_smiles=CSc1sc(C(N)=O)c2c1-c1nc(Nc3cc(N4CCN(C)CC4)ccc3OC(F)(F)F)ncc1CC2 quantitative_result=0.41
sample_smiles=CSc1sc(C(N)=O)c2c1-c1nc(Nc3cc(N4CCN(CCO)CC4)ccc3OC(F)(F)F)ncc1CC2 quantitative_result=0.374

---

Assay: Pharmacokinetic study in CD-1 male mice by oral administration and intravenous injection
Type: in vivo
Settings: mouse, PO, 2.2 mg/kg, plasma, read-out: Area under the plasma concentration-time curve AUC0-24 h
Measured Property: AUC(0-t) (µM·h)

sample_smiles=CSc1sc(C(N)=O)c2c1-c1nc(Nc3cc(N4CCN(CCO)CC4)ccc3OC(F)(F)F)ncc1CC2 measured_property=AUC(0-t) result_unit=µM·h quantitative_result=0.459

---

Assay: Pharmacokinetic study in CD-1 male mice by oral administration and intravenous injection
Type: in vivo
Conditions: mouse, plasma, PO 3.0 mg/kg vs IV 1.0 mg/kg, read-out: Bioavailability F
Measured Property: bioavailability

compound="CCOc1sc(C(N)=O)c2c1-c1nc(Nc3cc(N4CCN(C)CC4)ccc3OC(F)(F)F)ncc1CC2 [Compound 2]" measured_property=bioavailability result=54.2%

---

Assay: Pharmacokinetic study in CD-1 male mice by oral administration and intravenous injection
Assay type: in vivo
Conditions: mouse, plasma, PO 2.0 mg/kg vs IV 0.5 mg/kg, read-out: Bioavailability F
Measured Property: bioavailability (%)

sample_smiles=CSc1sc(C(N)=O)c2c1-c1nc(Nc3cc(N4CCN(C)CC4)ccc3OC(F)(F)F)ncc1CC2 quantitative_result=66.4

---

Measured half-life accompanies every entry in the list below.
Test: Pharmacokinetic study in CD-1 male mice by oral administration and intravenous injection
Assay type: in vivo
Details: mouse, IV, 0.5 mg/kg, plasma, read-out: Half-life T½ (converted)
Measured Property: half-life (h)

sample_smiles=CSc1sc(C(N)=O)c2c1-c1nc(Nc3cc(N4CCN(CCO)CC4)ccc3OC(F)(F)F)ncc1CC2 quantitative_result=0.74
sample_smiles=CSc1sc(C(N)=O)c2c1-c1nc(Nc3cc(N4CCN(C)CC4)ccc3OC(F)(F)F)ncc1CC2 quantitative_result=1.47

---

Test: Pharmacokinetic study in CD-1 male mice by oral administration and intravenous injection
Assay type: in vivo
Details: mouse, PO, 2.2 mg/kg, plasma, read-out: Peak concentration Cmax
Measured Property: Cmax (nM)

sample_smiles=CSc1sc(C(N)=O)c2c1-c1nc(Nc3cc(N4CCN(CCO)CC4)ccc3OC(F)(F)F)ncc1CC2 measured_property=Cmax quantitative_result=157

---

Target: human PLK1 protein kinase (Homo sapiens (Human))
Sequence (P53350 whole entry): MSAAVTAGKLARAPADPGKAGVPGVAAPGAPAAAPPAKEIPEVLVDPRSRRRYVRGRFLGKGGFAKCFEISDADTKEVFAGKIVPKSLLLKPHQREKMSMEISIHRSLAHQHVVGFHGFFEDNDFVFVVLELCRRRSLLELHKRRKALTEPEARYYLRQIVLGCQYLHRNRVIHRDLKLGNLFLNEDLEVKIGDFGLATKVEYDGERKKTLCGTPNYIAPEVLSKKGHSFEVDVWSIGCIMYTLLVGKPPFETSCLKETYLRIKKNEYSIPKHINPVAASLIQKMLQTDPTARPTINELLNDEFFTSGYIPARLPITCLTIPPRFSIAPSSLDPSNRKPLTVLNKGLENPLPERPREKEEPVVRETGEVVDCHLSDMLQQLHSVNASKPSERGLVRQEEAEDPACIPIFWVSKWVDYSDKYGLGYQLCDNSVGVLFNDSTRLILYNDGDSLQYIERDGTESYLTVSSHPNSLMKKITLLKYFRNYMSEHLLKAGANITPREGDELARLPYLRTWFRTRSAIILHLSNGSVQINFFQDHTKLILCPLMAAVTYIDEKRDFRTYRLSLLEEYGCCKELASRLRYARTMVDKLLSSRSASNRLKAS
Measured IC50 accompanies every entry in the list below.
Measured Property: IC50 (nM)

sample_smiles=CSc1sc(C(N)=O)c2c1-c1nc(Nc3cc(N4CCN(C)CC4)ccc3OC(F)F)ncc1CC2 quantitative_result=1
sample_smiles=CN1CCN(c2ccc(OC(F)(F)F)c(Nc3ncc4c(n3)-c3c(OC5CC5)sc(C(N)=O)c3CC4)c2)CC1 quantitative_result=4.3
sample_smiles=CN1CCN(c2ccc(OC(F)(F)F)c(Nc3ncc4c(n3)-c3c(SCCO)sc(C(N)=O)c3CC4)c2)CC1 quantitative_result=5
sample_smiles=CSc1sc(C(N)=O)c2c1-c1nc(Nc3cc(N4CC5CC(C4)N5C)ccc3OC(F)(F)F)ncc1CC2 quantitative_result=6.4
sample_smiles=CN1CCN(c2ccc(OC(F)(F)F)c(Nc3ncc4c(n3)-c3c(C#N)sc(C(N)=O)c3CC4)c2)CC1 quantitative_result=4.9

---

Experiment: Pharmacokinetic study in CD-1 male mice by oral administration and intravenous injection
Format: in vivo
Conditions: mouse, plasma, PO 2.2 mg/kg vs IV 0.5 mg/kg, read-out: Bioavailability F
Measured Property: bioavailability (%)

sample_smiles=CSc1sc(C(N)=O)c2c1-c1nc(Nc3cc(N4CCN(CCO)CC4)ccc3OC(F)(F)F)ncc1CC2 quantitative_result=30.9

---

Assay: Pharmacokinetic study in CD-1 male mice by oral administration and intravenous injection
Assay type: in vivo
Details: mouse, PO, 2.0 mg/kg, plasma, read-out: Area under the plasma concentration-time curve AUC0-24 h
Measured Property: AUC(0-t) (µM·h)

compound="CSc1sc(C(N)=O)c2c1-c1nc(Nc3cc(N4CCN(C)CC4)ccc3OC(F)(F)F)ncc1CC2 [Compound 1]" quantitative_result=1.05

---

Assay: Pharmacokinetic study in CD-1 male mice by oral administration and intravenous injection
Type: in vivo
Settings: mouse, PO, 3.0 mg/kg, plasma, read-out: Peak concentration Cmax
Measured Property: Cmax (nM)

sample_smiles=CCOc1sc(C(N)=O)c2c1-c1nc(Nc3cc(N4CCN(C)CC4)ccc3OC(F)(F)F)ncc1CC2 measured_property=Cmax result_unit=nM quantitative_result=478

---

Assay: Pharmacokinetic study in CD-1 male mice by oral administration and intravenous injection
Type: in vivo
Conditions: mouse, PO, 3.0 mg/kg, plasma, read-out: Peak time Tmax
Measured Property: Tmax (min)

sample_smiles=CCOc1sc(C(N)=O)c2c1-c1nc(Nc3cc(N4CCN(C)CC4)ccc3OC(F)(F)F)ncc1CC2 quantitative_result=45

---

Assay: Pharmacokinetic study in CD-1 male mice by oral administration and intravenous injection
Format: in vivo
Details: PO, 3.4 mg/kg, plasma, read-out: Peak concentration Cmax
Source text: The purpose of this experiment is to study the pharmacokinetics of the test compound in the plasma of CD-1 male mice after intravenous injection and oral administration. […]
Measured Property: Cmax (nM)

compound="CN1CCN(c2ccc(OC(F)(F)F)c(Nc3ncc4c(n3)-c3c(OC5CC5)sc(C(N)=O)c3CC4)c2)CC1 [Compound 18]" measured_property=Cmax result_unit=nM quantitative_result=688

---

Test: Pharmacokinetic study in CD-1 male mice by oral administration and intravenous injection
Format: in vivo
Conditions: mouse, IV, 0.5 mg/kg, plasma, read-out: Clearance CL
Attribute: clearance
Measured Property: clearance

sample_smiles=CSc1sc(C(N)=O)c2c1-c1nc(Nc3cc(N4CCN(C)CC4)ccc3OC(F)(F)F)ncc1CC2 result="37.8 mL/min/kg"
sample_smiles=CSc1sc(C(N)=O)c2c1-c1nc(Nc3cc(N4CCN(CCO)CC4)ccc3OC(F)(F)F)ncc1CC2 result="37.4 mL/min/kg"

---

Experiment: Pharmacokinetic study in CD-1 male mice by oral administration and intravenous injection
Type: in vivo
Conditions: mouse, PO, 2.0 mg/kg, plasma, read-out: Peak concentration Cmax
Measured Property: Cmax (nM)

compound="CSc1sc(C(N)=O)c2c1-c1nc(Nc3cc(N4CCN(C)CC4)ccc3OC(F)(F)F)ncc1CC2 [Compound 1]" quantitative_result=386

---

Test: Pharmacokinetic study in CD-1 male mice by oral administration and intravenous injection
Format: in vivo
Conditions: mouse, PO, 2.2 mg/kg, plasma, read-out: Peak time Tmax
Measured Property: Tmax (min)

compound="CSc1sc(C(N)=O)c2c1-c1nc(Nc3cc(N4CCN(CCO)CC4)ccc3OC(F)(F)F)ncc1CC2 [Compound 8]" result_unit=min quantitative_result=45

---

Assay: Pharmacokinetic study in CD-1 male mice by oral administration and intravenous injection
Format: in vivo
Conditions: mouse, IV, 1.0 mg/kg, plasma, read-out: Apparent volume of distribution Vdss
Measured Property: Vd (L/kg)

sample_smiles=CCOc1sc(C(N)=O)c2c1-c1nc(Nc3cc(N4CCN(C)CC4)ccc3OC(F)(F)F)ncc1CC2 quantitative_result=2.89
